# Test details: growth suppression of yeast trafficking mutant, preliminary HTS, modulators of trafficking downstream of Golgi apparatus project, 1536-format plate, OD 615 nm (AID 637); further: test concentration not given here
# Condition label: yeast transport mutant growth, absorbance 615 nm, 18 h; stronger effect = higher value
Provide the reported inhibition of each item.
Give bare numbers, in %.

The cases that follow already have their inhibition on record.
Cc1c[nH]c2cccc(OCC(O)CNC(C)(C)C)c12 (configuration not stated)    17.8
Fc1ccc(-c2csc3nnc(SCc4cccnc4)n23)cc1    8.33
CCOC(=O)CC(=O)CSc1[nH]c(=O)cc(C)c1C#N    -0.16
CC(=O)c1ccc(NC2OC(C)C(O)C(O)C2O)cc1 (configuration not stated)    -6.67

// input: 3 compounds below; output: inhibition for each
1. COc1cc2c(c(OC)c1)C(c1ccncc1)CC(=O)N2 (configuration not stated)
2. Cc1ccc(-c2nnc3ccc(SCC(=O)NCc4ccco4)nn23)cc1
3. CC(NC(=O)Cc1cccs1)c1ccc2c(c1)OCO2 (configuration not stated)

Response:
[-5.57, -8.33, -0.66]

Would you be so kind as to report inhibition for each listed record?
1. O=C(/C=N/O)NCc1ccncc1
2. COc1ccc(N=c2scc(-c3ccc(S(=O)(=O)N4CCOCC4)cc3)n2CCCO)cc1
3. O=C(Nc1nccs1)NC(C(F)(F)F)C(F)(F)F
4. Cc1c(C(=O)O)oc2ccc(S(=O)(=O)NCCC3=CCCCC3)cc12
5. CC1=Nn2c(nnc2-c2ccccn2)SC1
6. CS(=O)(=O)Nc1ccc(C(=O)NCc2ccco2)cc1
7. Nc1nonc1-c1noc(CCCCCN2C(=O)c3ccccc3C2=O)n1

Response:
1: -3.81; 2: -8.5; 3: -0.16; 4: -9.52; 5: -1.9; 6: -5.16; 7: -6.61

Please supply inhibition for each of the following items, keeping them in order.
1. CCC(C)NC(=O)c1ccccc1NC(=O)C(C)N(c1ccccc1)S(C)(=O)=O (configuration not stated)
2. O=C(OCCCCN1C(=O)c2ccccc2C1=O)c1n[nH]c2ccccc12
3. CCN1C(=O)Cc2cc(S(=O)(=O)N3CCOCC3)ccc21

Response:
1: 5.57; 2: 4.29; 3: -0.63

----------
Kindly supply the reported inhibition values for the records listed here.
# Test details: growth suppression of yeast trafficking mutant, preliminary HTS, modulators of trafficking downstream of Golgi apparatus project, 1536-format plate, OD 615 nm (AID 637); further: test concentration not given here
# Condition label: yeast transport mutant growth, absorbance 615 nm, 18 h; stronger effect = higher value
Numbers only, in %.

Worked examples follow.
CCC(C)n1[nH]c(=O)c2c(C)cc(C)nc21 (centres undefined)    -1.64
O=C(Cn1nnc(-c2cc(Cl)ccc2-n2cnnn2)n1)N1CCCc2ccccc21    10.8
COc1cc(OC)c(-c2nn3c(C4CCCCC4)nnc3s2)cc1OC    2.3
CC(=O)Nc1ccc(NS(=O)(=O)C(F)(F)F)cc1    1.48
CCCN(CCC)S(=O)(=O)c1ccc(C(=O)Nc2nnc(-c3cccc(OC)c3)o2)cc1    -1.64

Provide reported inhibition for each item, in the same order as listed.
1. Cc1cccc(N2CCN(C(=O)CCn3c(=S)[nH]c4cc5c(cc4c3=O)OCO5)CC2C)c1 (centres undefined)
2. O=C(OCC(=O)c1cccs1)C1=COCCO1
3. Cc1ccc(N2CC(C)Cn3c2nc2c3c(=O)n(CC(=O)OCc3ccccc3)c(=O)n2C)cc1C (centres undefined)
4. Cn1cnc(S(=O)(=O)Nc2ccc(C(F)(F)F)cc2)c1
5. Cc1cc(NC(=O)c2ccccc2Oc2ccccc2)no1
6. O=C(Nc1cccc(Cl)c1)N1CCN(c2ncccn2)CC1
7. COCCOC(=O)C1=C(C)Nc2ncnn2C1c1ccc(F)cc1 (centres undefined)

Response:
1.27
-1
1.97
-11.7
2.42
-6.51
-1.48
